Attribution: patent US20090105283A1

- Target Of Assay: stearoyl-CoA desaturase (SCD) (Rattus norvegicus)
- Construct: The microsomes were quickly thawed and added to assay buffer so that a concentration of 0.4 mg/ml was achieved; from tissue
- Sequence (P07308 whole entry): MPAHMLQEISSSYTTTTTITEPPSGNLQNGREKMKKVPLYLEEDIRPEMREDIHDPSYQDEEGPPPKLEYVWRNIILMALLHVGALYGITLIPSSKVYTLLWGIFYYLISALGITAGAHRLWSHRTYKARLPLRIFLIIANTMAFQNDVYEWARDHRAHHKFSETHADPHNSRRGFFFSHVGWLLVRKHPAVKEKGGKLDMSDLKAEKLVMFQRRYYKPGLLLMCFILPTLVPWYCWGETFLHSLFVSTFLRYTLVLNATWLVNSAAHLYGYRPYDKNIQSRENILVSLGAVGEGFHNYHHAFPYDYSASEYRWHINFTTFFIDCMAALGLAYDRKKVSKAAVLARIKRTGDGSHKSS
- Experimental Details: SCD assay with rat liver microsomes ([3H]stearoyl CoA, adapted from Talamo and Bloch)
- Assay type: biochemical
- Measurement Conditions: Table 1; rat liver microsomes 0.2 mg/ml assay final, [3H]stearoyl CoA substrate, 30 min preincubation, 45 min reaction, room temperature
pIC50: −log10 of the molar value.
pIC50 vs 6: at or above is 1, below is -1.

Incoming: Evaluate "CC(=O)OCC(=O)Nc1ccc2c(=O)n(Cc3cccc(Cl)c3)cnc2c1" : pIC50 at minimum 6?
Outgoing: -1

Incoming: Does the compound "CN(C)CC(=O)OCC(=O)Nc1ccc2ncn(Cc3ccc(Cl)c(Cl)c3)c(=O)c2c1" have recorded pIC50 that is 6 or more?
Outgoing: 1

Incoming: hey, is pIC50 for this one >= 6? "Cc1nc2ccc(NC(=O)OCc3ccccc3)cc2c(=O)n1Cc1ccc(Cl)c(Cl)c1"
Outgoing: -1

Incoming: Has "O=C(COc1cccnc1)Nc1ccc2c(=O)n(Cc3ccc(Cl)cc3)cnc2c1" a recorded pIC50 greater than or equal to 6?
Outgoing: -1

Incoming: Could you verify whether the entry "C=CCOC(=O)Nc1ccc2ncn(Cc3ccc(Cl)cc3)c(=O)c2c1" shows pIC50 of no less than 6?
Outgoing: -1

Incoming: # bool: pIC50 of "O=C(Nc1ccc2c(=O)n(Cc3cccc(Cl)c3)cnc2c1)OCc1ccccc1" >= 6
Outgoing: 1

Incoming: Quick check: does "O=C(Nc1ccc2ncn(Cc3ccc(F)cc3)c(=O)c2c1)OCc1ccccc1" have pIC50 greater than or equal to 6?
Outgoing: 1

====

- Target Of Assay: stearoyl-CoA desaturase (SCD) (Rattus norvegicus)
- Construct: The microsomes were quickly thawed and added to assay buffer so that a concentration of 0.4 mg/ml was achieved; from tissue
- Experimental Details: SCD assay with rat liver microsomes ([3H]stearoyl CoA, adapted from Talamo and Bloch)
- Assay type: biochemical
- Measurement Conditions: Table 2 (Example 21, procedures of Example 20); rat liver microsomes, [3H]stearoyl CoA substrate
Param label: returns y when IC50 < 3000 nM, returns n otherwise, including exact equality.

Incoming: Hi there! Is IC50 for "COCCNC(=O)c1ccc2c(=O)n(Cc3ccc(Cl)cc3)cnc2c1" below 3000 nM, do you know?
Outgoing: n

Incoming: Dear colleague, could you confirm whether IC50 of "O=C(CO)Nc1ccc2c(=O)n(CCOc3ccccc3Cl)cnc2c1" falls below 3000 nM? Thanks.
Outgoing: n

Incoming: Given "NCC(=O)Nc1ccc2ncn(Cc3ccc(Cl)c(Cl)c3)c(=O)c2c1" , is recorded IC50 strictly lower than 3000 nM?
Outgoing: y

Incoming: Hello, I'm reviewing records and need to know if IC50 of "O=C(CO)Nc1ccc2ncn(CCCOc3ccccc3C(F)(F)F)c(=O)c2c1" is below 3000 nM. Could you check?
Outgoing: y

Incoming: Problem: For the compound "Cc1ccc(Cn2cnc3ccc(NC(=O)CO)cc3c2=O)cc1C" , is IC50 under 3000 nM?
Outgoing: y

Incoming: Just wondering, is IC50 of "O=C(CO)Nc1ccc2ncn(CCCOc3ccc(Cl)cc3)c(=O)c2c1" below 3000 nM?
Outgoing: n

Incoming: Does "O=C(CO)Nc1ccc2ncn(CCCOc3cccc(Cl)c3Cl)c(=O)c2c1" have IC50 strictly under 3000 nM?
Outgoing: y

Incoming: Would you kindly verify if IC50 of CC(=O)OCC(=O)Nc1ccc2c(=O)n(C(C)c3ccc(Cl)c(Cl)c3)cnc2c1 (stereo not drawn) is strictly less than 3000 nM?
Outgoing: y

Incoming: Answer whether the compound "CC(=O)Nc1ccc2ncn(Cc3ccc(Cl)c(Cl)c3)c(=O)c2c1" has IC50 strictly less than 3000 nM
Outgoing: n
